System: SNB-78 CNS
Mark one answer only. Choices: true (active), false (inactive)

Recorded results for 3 compounds are shown here.
> print(dat)
                                   compound  qualitative.label
1  CC(=O)OC(C)(C)/C=C/C(=O)[C@](C)(O)[C@H]1[C@H](O)C[C@@]2(C)[C@@H]3CC=C4[C@@H](C[C@H](O)C(=O)C4(C)C)[C@]3(CO)C(=O)C[C@]12C               true
2  C=C1C(=O)O[C@@H]2OC3(C)CCC4C(C)CCC1C42OO3 (some centres undefined)              false
3  CC(C)[NH-].CC(C)[NH-].O.O.[Cl][Pt+2][Cl]              false

Read the next record carefully.
Q) What outcome does the record of this test show for CCOC(=O)NC1=C(N2CC2)C(=O)C(NC(=O)OCC)=C(N2CC2)C1=O ?
A) false

---

Tested on: MOLT-4 leukemia
Test: NCI tumour cell line growth inhibition, 48 h
The molecules listed here are annotated with their TGI.

Consider the worked cases shown below.
> print(dat)
                                   molecule     assay.target  test.result
1  COc1cc(/C=c2/c3ccccc3n3c2cc(-c2ccccc2)[n+]3C)cc(OC)c1OC  MOLT-4 leukemia    > 64.9 µM
2    CN1CCN(/C(N)=C(\C#N)C(=O)Nc2ccccc2)CC1  MOLT-4 leukemia     > 100 µM
3  CN(C)CCNC(=O)c1cccc2[nH]c(-c3ccncc3)nc12  MOLT-4 leukemia     > 100 µM
4  Cc1ccc(C(=O)N2c3ccccc3N(C)n3cccc3C2CC(=O)O)cc1 (configuration not stated)  MOLT-4 leukemia     > 100 µM
5  Cc1ccc(C(=O)N2CCN(C(=O)c3ccc(C)cc3)c3ccccc32)cc1  MOLT-4 leukemia    > 46.4 µM

Briefly, TGI measured for COC1=C2C[C@H](O)C(C)C[C@@]2(OC)OC1=O (some centres not stated) : > 100 µM

Briefly, TGI measured for Cc1ccc(C(=O)/C(=C\c2ccc([N+](=O)[O-])cc2)S(=O)Cc2ccc(F)cc2)cc1 (configuration not stated) : 5.58 µM

---

System: DMS 114 small cell lung
Assay: NCI tumour cell line growth inhibition, 48 h
measured property: TGI (µM)
Numbers only; they are read as µM.

Consider the worked cases shown below.
molecule	test result
COC(=O)[C@@]12OC[C@]34C([C@@H](O)C1O)[C@@]1(C)CC(=O)C(O)=C(C)C1C[C@H]3OC(=O)[C@H](OC(=O)/C=C(/c1ccccc1)C(F)(F)F)[C@H]42 (some centres not stated)	17
CCCCCCCC(=O)OCC(C[As](=O)(O)O)OC(=O)CCCCCCC (configuration not stated)	30.6

Switching to the query record.
Briefly, TGI measured for CCCCCCCCC(O)C#CC(N)=O (configuration not stated) : 17.9

---

The compounds listed here are annotated with their TGI.
System: HOP-92 NSCLC
Test: NCI tumour cell line growth inhibition, 48 h

Consider the worked cases shown below.
> print(dat)
                                   compound  measured.property  test.result
1                          CNc1ncnc2c1nnn2C                TGI     > 100 µM
2  Cc1ccc(C(=O)N2CCN(C(=O)c3ccc(C)cc3)c3ccccc32)cc1                TGI    > 61.2 µM
3  CCOC(=O)Cn1nnc2cc(Nc3nc4ccccc4nc3C(=O)OCC)ccc21                TGI        50 µM
4  O=C1C2CC=CCC2C(=O)C12CCc1ccccc12 (stereo unspecified)                TGI     > 100 µM
5  COc1ccc2c(c1)CCc1[nH]nc(-c3cc(OC)c(OC)c(OC)c3)c1-2                TGI      28.5 µM

Briefly, TGI measured for Cc1ccc(C(=O)C2=CN=C3C(=O)N(c4ccccc4)N(C)C3(C)C2=N)cc1 (stereo unspecified) : > 100 µM

Briefly, TGI measured for C[C@]1(C(=O)O)N[C@H](C(=O)O)CS1 : > 1000 µM

Briefly, TGI measured for CCCCCC(O)(CCCCC)CCCCCCCCC1=C(O)c2ccccc2C(=O)C1=O : 33.6 µM

Briefly, TGI measured for COC(=O)c1c(O)ccc2c1c1c(n2Cc2ccccn2)C(=O)c2ccccc2C1=O : > 100 µM

Briefly, TGI measured for O=c1oc(-c2ccccc2)cc2cccc(O)c12 : 61.6 µM

Briefly, TGI measured for CCO/C=C1\N=C(C(Cl)c2ccccc2)OC1=O (stereo unspecified) : > 100 µM

---

Tested on: RPMI-8226 leukemia
Experiment: NCI tumour cell line growth inhibition, 48 h
measured property: TGI

Consider the worked cases shown below.
> print(dat)
                                   compound  measured.property  test.result
1   COc1ccc2oc(=Nc3ccc(F)cc3)c(C(N)=O)cc2c1                TGI     > 100 µM
2  COc1ccc(N=N/C(=N/NC(=O)c2cc(Cl)ccc2C(=O)c2ccccc2)c2ccc(N(CCC#N)CCC#N)cc2C)cc1                TGI      44.4 µM
3  Cc1ccc(C(=O)N2c3ccccc3N(C)n3cccc3C2CC(=O)O)cc1 (stereo unspecified)                TGI     > 100 µM
4           Cc1nc2c(Cl)cc(Cl)cc2c(Cl)c1CCCl                TGI     > 100 µM
5  Nc1nn(CC(O)CO)c(=O)s1 (stereo unspecified)                TGI     > 100 µM
6  O=c1nc(NC(c2ccccc2)(c2ccccc2)c2ccccc2)ccn1CCO                TGI     > 100 µM
7     O=C1c2ccccc2-c2nnc(-c3ccc(Cl)cc3)cc21                TGI      > 10 µM
8  CC1(C)OCC(COC(=O)NCn2cc(-c3ccccc3)nn2)O1 (stereo unspecified)                TGI     > 100 µM

Briefly, TGI measured for Clc1ccc2nc(CC3CCCC3)[nH]c2c1 : 50.3 µM

Briefly, TGI measured for C=CC[C@@H]1C=C[C@@H](C(=O)OC)n2c(=O)n(-c3ccccc3)c(=O)n21 : > 100 µM

Briefly, TGI measured for CC(C)[NH-].CC(C)[NH-].O.O.[Cl][Pt+2][Cl] : 281 µM

---

Tested on: MDA-N
Test: NCI tumour cell line growth inhibition, 48 h
Where a SMILES comes first, the peptide text is derived from it. [ ]: non-standard residue; d: D form. The star is where a group is joined. ξ: configuration not given here. Propanoyl(3-(4-MeO-Ph)) = COc1ccc(CCC(=O)*)cc1; Thr(3ξ) = CC(O)[C@H](N)C(=O)O; dNMeL = CN[C@H](CC(C)C)C(=O)O; ξLac = CC(O)C(=O)O
The compounds listed here are annotated with their TGI.

Consider the worked cases shown below.
compound	assay target	TGI
COC(=O)[C@@H](NC(=O)[C@@H](CC(C)C)N(C)C(=O)[C@@H]1CCCN1C(=O)C(C)O)C(C)OC(=O)CCc1ccc(OC)cc1 (some centres undefined) (H-[ξLac]P[dNMeL][Thr(3ξ)](Propanoyl(3-(4-MeO-Ph)))-OMe)	MDA-N	> 100 µM
CCCC(=O)Nc1cc(/C=C/C(=O)N2CC(CCl)c3c2cc([N+](=O)[O-])c2ccccc32)n(C)c1 (centres undefined)	MDA-N	> 100 µM
Clc1cccc(N2CCN(CCN3CCc4c([nH]c5ccccc45)C3c3cccnc3)CC2)c1 (centres undefined)	MDA-N	> 100 µM
CCOC(=O)c1cn(CC)c2cc3c(cc2c1=O)CCS3(=O)=O	MDA-N	> 100 µM
CCNc1cc2c3c(c1)CCCN3CCC2	MDA-N	10.9 µM
O=C(Nc1ccc2[nH]c(C(=O)N3CC(CCl)c4c3cc([N+](=O)[O-])c3ccccc43)cc2c1)c1cc2ccccc2o1 (centres undefined)	MDA-N	> 1100 µM
COc1cc(O)c2c(=O)c(OC)c(-c3ccc4c(c3)OCO4)oc2c1OC	MDA-N	> 50 µM
CC(C)[NH-].CC(C)[NH-].O.O.[Cl][Pt+2][Cl]	MDA-N	106 µM

Switching to the query record.
Briefly, TGI measured for Cc1cc(Oc2cnc(=O)[nH]c2)cs1 : > 100 µM

---

Tested on: SK-MEL-5 melanoma
Assay: NCI tumour cell line growth inhibition, 48 h; in the data active = GI50 below about 0.43 µM; inactive = the rest
Mark one answer only. Choices: active, inactive

Recorded results for 3 compounds are shown here.
> print(dat)
                                   compound  qualitative.label
1  COc1cc(-c2csc(NC(=O)Nc3cc(C(F)(F)F)cc(C(F)(F)F)c3)n2)cc(OC)c1OC           inactive
2  O=C(O)c1ccc([S-])cc1.[Au+].c1ccc(CN2[CH-]N(Cc3ccccc3)C(c3ccccc3)=C2c2ccccc2)cc1             active
3  Cn1c(/C=C(\C#N)c2cccc(C(F)(F)F)c2)nc2c(N3CCOCC3)nc(Cl)nc21           inactive

Q) What outcome does the record of this test show for COc1ccc2c(c1)CCc1[nH]nc(-c3cc(OC)c(OC)c(OC)c3)c1-2 ?
A) active

Q) What outcome does the record of this test show for CC1(C)N=C(N)N=C(N)N1c1ccc(CCc2ccc(Cl)cc2S(=O)(=O)F)c(Cl)c1 ?
A) inactive
